- Target Under Test: Acetylcholinesterase (Homo sapiens)
- Sequence (P22303 whole entry): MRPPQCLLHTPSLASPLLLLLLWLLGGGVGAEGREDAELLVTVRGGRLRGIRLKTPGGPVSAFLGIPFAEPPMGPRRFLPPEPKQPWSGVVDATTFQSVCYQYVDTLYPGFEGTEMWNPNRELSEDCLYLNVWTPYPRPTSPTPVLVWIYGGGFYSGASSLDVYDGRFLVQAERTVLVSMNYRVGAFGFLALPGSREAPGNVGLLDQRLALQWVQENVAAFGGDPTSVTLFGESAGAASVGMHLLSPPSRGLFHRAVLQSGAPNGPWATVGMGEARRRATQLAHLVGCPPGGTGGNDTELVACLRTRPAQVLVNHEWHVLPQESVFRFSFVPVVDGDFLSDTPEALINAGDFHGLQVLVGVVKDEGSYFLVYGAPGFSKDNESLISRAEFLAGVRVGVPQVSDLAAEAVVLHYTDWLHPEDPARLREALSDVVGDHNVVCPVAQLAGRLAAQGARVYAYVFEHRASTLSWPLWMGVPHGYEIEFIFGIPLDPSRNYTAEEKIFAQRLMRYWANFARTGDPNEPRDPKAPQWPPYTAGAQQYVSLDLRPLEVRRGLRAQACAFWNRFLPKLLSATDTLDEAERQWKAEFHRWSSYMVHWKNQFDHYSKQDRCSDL
- Protocol Description: Inhibition of human serum AChE by Ellman colorimetric assay
Assay Metric: IC50 (µM)

>  <Input Smiles>
CCCCC1=NC2(CCCC2)C(=O)N1Cc1ccc(Br)cc1

>  <Target Under Test>
Acetylcholinesterase (Homo sapiens)

>  <Unit Abbreviation>
µM

>  <Meas Value>
0.07

$$$$
>  <Input Smiles>
CCCCC1=NC2(CCCC2)C(=O)N1Cc1ccc(-c2ccccc2C(=O)OC)cc1

>  <Target Under Test>
Acetylcholinesterase (Homo sapiens)

>  <Unit Abbreviation>
µM

>  <Meas Value>
0.241

$$$$
>  <Input Smiles>
CCCCC1=NC2(CCCC2)C(=O)N1Cc1ccc([N+](=O)[O-])cc1

>  <Target Under Test>
Acetylcholinesterase (Homo sapiens)

>  <Unit Abbreviation>
µM

>  <Meas Value>
0.135

$$$$
>  <Input Smiles>
CCCCC1=NC2(CCCC2)C(=O)N1Cc1cc2c(cc1C)OCO2

>  <Target Under Test>
Acetylcholinesterase (Homo sapiens)

>  <Unit Abbreviation>
µM

>  <Meas Value>
0.232

$$$$
>  <Input Smiles>
CCCCC1=NC2(CCCC2)C(=O)N1CCN1C(=O)c2ccccc2C1=O

>  <Target Under Test>
Acetylcholinesterase (Homo sapiens)

>  <Unit Abbreviation>
µM

>  <Meas Value>
0.231

$$$$
>  <Input Smiles>
CCCCC1=NC2(CCCC2)C(=O)N1CC(=O)c1ccc(Cl)cc1

>  <Target Under Test>
Acetylcholinesterase (Homo sapiens)

>  <Unit Abbreviation>
µM

>  <Meas Value>
0.286

$$$$
>  <Input Smiles>
CCCCC1=NC2(CCCC2)C(=O)N1Cc1ccc(-c2ccccc2C(=O)OC(C)(C)C)cc1

>  <Target Under Test>
Acetylcholinesterase (Homo sapiens)

>  <Unit Abbreviation>
µM

>  <Meas Value>
0.269

$$$$
>  <Input Smiles>
CCCCC1=NC2(CCCC2)C(=O)N1Cc1cc(OC)c(OC)cc1Br

>  <Target Under Test>
Acetylcholinesterase (Homo sapiens)

>  <Unit Abbreviation>
µM

>  <Meas Value>
0.0825

$$$$
>  <Input Smiles>
CCCCC1=NC2(CCCC2)C(=O)N1Cc1ccc(-c2ccccc2C#N)cc1

>  <Target Under Test>
Acetylcholinesterase (Homo sapiens)

>  <Unit Abbreviation>
µM

>  <Meas Value>
0.0825

$$$$

----------
- Target Under Test: Acetylcholinesterase (Rattus norvegicus)
- Sequence (P37136 whole entry): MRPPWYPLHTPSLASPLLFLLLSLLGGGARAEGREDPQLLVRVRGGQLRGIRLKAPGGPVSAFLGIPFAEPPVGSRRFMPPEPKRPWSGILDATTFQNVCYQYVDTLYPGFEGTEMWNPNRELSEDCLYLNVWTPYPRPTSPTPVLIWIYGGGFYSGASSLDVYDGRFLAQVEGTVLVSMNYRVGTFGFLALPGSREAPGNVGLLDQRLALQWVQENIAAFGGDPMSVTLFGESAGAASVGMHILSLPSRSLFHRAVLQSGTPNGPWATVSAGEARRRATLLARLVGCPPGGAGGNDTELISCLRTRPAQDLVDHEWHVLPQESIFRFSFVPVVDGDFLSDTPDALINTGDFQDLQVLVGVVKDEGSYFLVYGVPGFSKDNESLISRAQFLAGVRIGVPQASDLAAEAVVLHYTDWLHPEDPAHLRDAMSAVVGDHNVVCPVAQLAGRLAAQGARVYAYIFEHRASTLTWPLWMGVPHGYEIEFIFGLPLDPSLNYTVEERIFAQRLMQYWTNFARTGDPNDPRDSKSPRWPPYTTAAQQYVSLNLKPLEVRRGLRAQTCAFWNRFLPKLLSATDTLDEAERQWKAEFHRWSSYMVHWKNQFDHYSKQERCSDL
Assay Metric: IC50

>  <Molecule>
CCCCC1=NC2(CCCC2)C(=O)N1Cc1ccc([N+](=O)[O-])cc1

>  <Target Under Test>
Acetylcholinesterase (Rattus norvegicus)

>  <Assay Metric>
IC50

>  <Meas Value>
134 nM

$$$$
>  <Molecule>
CCCCC1=NC2(CCCC2)C(=O)N1Cc1ccc(Br)cc1

>  <Target Under Test>
Acetylcholinesterase (Rattus norvegicus)

>  <Assay Metric>
IC50

>  <Meas Value>
70 nM

$$$$
>  <Molecule>
CCCCC1=NC2(CCCC2)C(=O)N1Cc1cc2c(cc1C)OCO2

>  <Target Under Test>
Acetylcholinesterase (Rattus norvegicus)

>  <Assay Metric>
IC50

>  <Meas Value>
216 nM

$$$$
>  <Molecule>
CN(C)C(=O)Oc1cccc([N+](C)(C)C)c1 [NEOSTIGMINE BROMIDE]

>  <Target Under Test>
Acetylcholinesterase (Rattus norvegicus)

>  <Assay Metric>
IC50

>  <Meas Value>
35 nM

$$$$
>  <Molecule>
CCCCC1=NC2(CCCC2)C(=O)N1Cc1ccc(-c2ccccc2C#N)cc1

>  <Target Under Test>
Acetylcholinesterase (Rattus norvegicus)

>  <Assay Metric>
IC50

>  <Meas Value>
90 nM

$$$$
>  <Molecule>
CCCCC1=NC2(CCCC2)C(=O)N1Cc1ccc(-c2ccccc2C(=O)OC)cc1

>  <Target Under Test>
Acetylcholinesterase (Rattus norvegicus)

>  <Assay Metric>
IC50

>  <Meas Value>
243 nM

$$$$
>  <Molecule>
CCCCC1=NC2(CCCC2)C(=O)N1Cc1ccc(-c2ccccc2C(=O)OC(C)(C)C)cc1

>  <Target Under Test>
Acetylcholinesterase (Rattus norvegicus)

>  <Assay Metric>
IC50

>  <Meas Value>
271 nM

$$$$
>  <Molecule>
CCCCC1=NC2(CCCC2)C(=O)N1Cc1cc(OC)c(OC)cc1Br

>  <Target Under Test>
Acetylcholinesterase (Rattus norvegicus)

>  <Assay Metric>
IC50

>  <Meas Value>
77.5 nM

$$$$
>  <Molecule>
CCCCC1=NC2(CCCC2)C(=O)N1CCN1C(=O)c2ccccc2C1=O

>  <Target Under Test>
Acetylcholinesterase (Rattus norvegicus)

>  <Assay Metric>
IC50

>  <Meas Value>
234 nM

$$$$
>  <Molecule>
CCCCC1=NC2(CCCC2)C(=O)N1CC(=O)c1ccc(Cl)cc1

>  <Target Under Test>
Acetylcholinesterase (Rattus norvegicus)

>  <Assay Metric>
IC50

>  <Meas Value>
280 nM

$$$$

----------
Observed IC50 for Acetylcholinesterase (Electrophorus electricus), reported per entry below.
Assay Metric: IC50 (µM)

>  <Compound>
CCCCC1=NC2(CCCC2)C(=O)N1Cc1ccc(Br)cc1

>  <Meas Value>
0.0675

$$$$
>  <Compound>
CCCCC1=NC2(CCCC2)C(=O)N1Cc1ccc(-c2ccccc2C(=O)OC)cc1

>  <Meas Value>
0.236

$$$$
>  <Compound>
CCCCC1=NC2(CCCC2)C(=O)N1Cc1cc(OC)c(OC)cc1Br

>  <Meas Value>
0.08

$$$$
>  <Compound>
CCCCC1=NC2(CCCC2)C(=O)N1CCN1C(=O)c2ccccc2C1=O

>  <Meas Value>
0.25

$$$$
>  <Compound>
CCCCC1=NC2(CCCC2)C(=O)N1Cc1ccc(-c2ccccc2C(=O)OC(C)(C)C)cc1

>  <Meas Value>
0.277

$$$$
>  <Compound>
CCCCC1=NC2(CCCC2)C(=O)N1Cc1cc2c(cc1C)OCO2

>  <Meas Value>
0.212

$$$$
>  <Compound>
CN(C)C(=O)Oc1cccc([N+](C)(C)C)c1 [NEOSTIGMINE BROMIDE]

>  <Meas Value>
0.0475

$$$$
>  <Compound>
CCCCC1=NC2(CCCC2)C(=O)N1CC(=O)c1ccc(Cl)cc1

>  <Meas Value>
0.28

$$$$
>  <Compound>
CCCCC1=NC2(CCCC2)C(=O)N1Cc1ccc(-c2ccccc2C#N)cc1

>  <Meas Value>
0.09

$$$$
>  <Compound>
CCCCC1=NC2(CCCC2)C(=O)N1Cc1ccc([N+](=O)[O-])cc1

>  <Meas Value>
0.149

$$$$

Measured values drawn from ChEMBL document CHEMBL1137534 for this set.
